AC50 data for Cytochrome P450 3A4 (Homo sapiens) follow.

Example entries and their recorded answers appear below.
# Molecule, AC50
data = [
    ("O[Si@](CCCN1CCCCC1)(c1ccc(F)cc1)C1CCCCC1", "3.98 µM (inconclusive)"),
    ("C/C(CCN1CCCc2nc(C)c(C)cc21)=N\\OC[C@@H](C)[C@H](OCc1ccccc1)C(C)C", "3.16 µM (inconclusive)"),
]

Please examine the following record next.
Problem: Fill in AC50 for `CO[C@H]1COC(=O)C/C=C\[C@H](C)COC(=O)[C@@H](OCc2ccccc2)/C=C\[C@@H]1C` tested with Cytochrome P450 3A4 (Homo sapiens).
Sequence (P08684 whole entry): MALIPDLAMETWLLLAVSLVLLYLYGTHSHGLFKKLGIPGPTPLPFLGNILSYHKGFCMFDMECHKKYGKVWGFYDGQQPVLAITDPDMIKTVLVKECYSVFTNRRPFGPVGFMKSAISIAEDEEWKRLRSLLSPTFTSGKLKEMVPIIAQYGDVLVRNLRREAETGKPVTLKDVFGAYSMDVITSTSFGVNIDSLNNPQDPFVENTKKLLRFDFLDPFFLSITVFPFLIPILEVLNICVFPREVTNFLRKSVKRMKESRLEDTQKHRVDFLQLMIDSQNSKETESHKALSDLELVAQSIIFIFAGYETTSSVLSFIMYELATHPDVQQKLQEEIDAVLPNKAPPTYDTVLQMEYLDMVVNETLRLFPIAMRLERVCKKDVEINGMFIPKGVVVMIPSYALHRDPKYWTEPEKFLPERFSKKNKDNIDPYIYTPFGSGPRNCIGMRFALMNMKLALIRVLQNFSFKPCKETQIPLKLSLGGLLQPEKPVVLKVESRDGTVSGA
Solution: 3.98 µM (inconclusive)

###

Molecular target: Ubiquitin-conjugating enzyme E2 N (Homo sapiens);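 further: Dose-response confirmation in a TR-FRET assay detecting UBC13-driven polyubiquitin chain formation, inhibition measured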
Sequence (P61088 whole entry): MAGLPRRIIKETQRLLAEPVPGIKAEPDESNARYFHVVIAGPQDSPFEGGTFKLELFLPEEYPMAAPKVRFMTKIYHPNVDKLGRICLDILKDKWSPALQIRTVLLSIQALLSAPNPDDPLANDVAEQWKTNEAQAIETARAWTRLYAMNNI
Assay type: functional
Activity calls are given as the source filed them.
Tick one outcome: active, inactive

Worked examples follow.
# Molecule, Class Assignment
data = [
    ("COc1ccc(Cl)cc1/C=N/NC(=O)c1c(-c2ccccc2)noc1C", "inactive"),
    ("CCOC(=O)c1c(C)n(-c2ccc(C)cc2)c2ccc(OCC(O)CNCC3CCCO3)cc12 (centres undefined)", "inactive"),
]

Problem: Could you check what this test reported for `COc1ccnc2c1c(=O)n(Cc1ccc(Cl)cc1)c(=O)n2C` ?
Solution: active

Problem: Could you check what this test reported for `Nc1c(C(=O)Nc2ccccc2)c2nc3ccccc3nc2n1CCCN1CCOCC1` ?
Solution: inactive

###

Listing of recorded IC50 by entry.
Biological target: Carboxy-terminal domain RNA polymerase II polypeptide A small phosphatase 1 (Homo sapiens, UniProt Q9GZU7)
Sequence (Q9GZU7 whole entry, the tested form may be a part): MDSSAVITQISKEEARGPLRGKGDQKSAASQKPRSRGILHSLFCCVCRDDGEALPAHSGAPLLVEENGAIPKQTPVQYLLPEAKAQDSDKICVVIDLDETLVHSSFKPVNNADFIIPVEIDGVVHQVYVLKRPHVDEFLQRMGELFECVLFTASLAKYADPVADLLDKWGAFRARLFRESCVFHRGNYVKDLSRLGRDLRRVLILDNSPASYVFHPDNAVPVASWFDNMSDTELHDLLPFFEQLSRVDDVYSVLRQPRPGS
Test: inhibitors of CTDSP1, concentration-response testing, biochemical assay, absorbance-based, actives from ultra-high-throughput screening (AID 540297)
Format: functional
Activity calls are given as the source filed them.

Example entries and their recorded answers appear below.
# Molecule, IC50
rows = [
    ("CCOC(=O)C1=C(COC(=O)/C=C/c2ccco2)NC(=O)NC1C (centres undefined)", "4.25 µM (active)"),
    ("O=C(Nc1nc(-c2ccco2)c(-c2ccco2)s1)C1CC(=O)N(c2ccc3c(c2)OCCO3)C1 (centres undefined)", "3.1 µM (active)"),
    ("O=C(CCS(=O)(=O)c1ccc(Br)cc1)Nc1cc(F)ccc1F", "7.86 µM (active)"),
]

Please examine the following record next.
Problem: Find the measured IC50 of C[n+]1ccc(C(=O)NCc2ccccc2)cc1 [ENISAMIUM IODIDE] and report it.
Solution: 9.76 µM (active)

###

Listing of recorded IC50 by entry.
Target: Rac GTPase-activating protein 1 (Homo sapiens, UniProt Q9H0H5)
Sequence (Q9H0H5 whole entry): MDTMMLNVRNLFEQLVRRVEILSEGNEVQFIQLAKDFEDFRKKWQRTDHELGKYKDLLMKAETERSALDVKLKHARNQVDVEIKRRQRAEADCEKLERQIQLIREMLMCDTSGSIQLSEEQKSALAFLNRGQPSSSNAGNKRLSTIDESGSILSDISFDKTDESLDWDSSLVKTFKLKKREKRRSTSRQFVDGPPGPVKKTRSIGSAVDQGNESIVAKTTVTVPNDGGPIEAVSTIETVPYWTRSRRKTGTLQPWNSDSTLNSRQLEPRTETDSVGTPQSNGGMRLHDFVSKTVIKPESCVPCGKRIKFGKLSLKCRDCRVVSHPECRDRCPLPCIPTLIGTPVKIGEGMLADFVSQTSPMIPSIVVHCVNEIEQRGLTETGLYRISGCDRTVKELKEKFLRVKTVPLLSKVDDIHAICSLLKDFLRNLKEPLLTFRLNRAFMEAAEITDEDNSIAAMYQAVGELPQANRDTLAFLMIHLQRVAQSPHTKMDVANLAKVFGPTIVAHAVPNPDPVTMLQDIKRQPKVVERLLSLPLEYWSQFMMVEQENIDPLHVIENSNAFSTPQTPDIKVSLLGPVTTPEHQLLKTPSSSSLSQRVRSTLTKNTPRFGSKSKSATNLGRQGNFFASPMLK
Experiment: MgcRacGAP GTPase-activating activity inhibitors, confirmation, biochemical, ADP Hunter fluorescence, primary and confirmatory (AID 624330)
Type: functional
Calls of active or inactive are those of the source.

Example entries and their recorded answers appear below.
# Compound, System Name, IC50
data = [
    ("CC1(C)OC(=O)C(=Cc2ccc(-c3ccc(S(N)(=O)=O)cc3)o2)C(=O)O1", "Rac GTPase-activating protein 1 (Homo sapiens, UniProt Q9H0H5)", "41.8 µM (active)"),
    ("C#CCOCCOCCOCCNc1nc(N2CCN(C(=O)C([C@@H](C)O)n3cc([C@@H](N)CCCCN)nn3)CC2)nc(N2CCN(C(=O)[C@H](CCCCN)n3cc(CN)nn3)CC2)n1 (some centres undefined)", "Rac GTPase-activating protein 1 (Homo sapiens, UniProt Q9H0H5)", "171 µM (active)"),
    ("CCOc1cc(CNc2ccc3[nH]c(O)nc3c2)ccc1OCC(=O)NC(C)(C)C", "Rac GTPase-activating protein 1 (Homo sapiens, UniProt Q9H0H5)", "60.2 µM (active)"),
    ("O=C(O)c1cc(N2C(=O)C=CC2=O)cc(N2C(=O)C=CC2=O)c1", "Rac GTPase-activating protein 1 (Homo sapiens, UniProt Q9H0H5)", "19.7 µM (active)"),
    ("O=[N+]([O-])c1cccc(CN2CCN(Cc3ccco3)CC2)c1", "Rac GTPase-activating protein 1 (Homo sapiens, UniProt Q9H0H5)", "98.5 µM (active)"),
]

Problem: Find the measured IC50 of O=C(COc1ccccc1)N1CCN(CC2CC3C=CC2C3)CC1 (centres undefined) and report it.
Solution: 175 µM (active)

Problem: Find the measured IC50 of `COC(=O)c1[nH]c2ccccc2c1NC(=O)Oc1ccccc1` and report it.
Solution: 15.9 µM (active)

Problem: Find the measured IC50 of `CC1(C)CC(=O)C=C(Nc2ccc(O)cc2)C1` and report it.
Solution: 20.2 µM (active)

Problem: Find the measured IC50 of `CC(C)NCC(=O)Nc1c2c(nc3ccccc13)CCC2` and report it.
Solution: 53.2 µM (active)

###

Listing of recorded AC50 by entry.
Biological target: UniProtKB P9WMR3
Sequence (P9WMR3 1-399, added parts left off): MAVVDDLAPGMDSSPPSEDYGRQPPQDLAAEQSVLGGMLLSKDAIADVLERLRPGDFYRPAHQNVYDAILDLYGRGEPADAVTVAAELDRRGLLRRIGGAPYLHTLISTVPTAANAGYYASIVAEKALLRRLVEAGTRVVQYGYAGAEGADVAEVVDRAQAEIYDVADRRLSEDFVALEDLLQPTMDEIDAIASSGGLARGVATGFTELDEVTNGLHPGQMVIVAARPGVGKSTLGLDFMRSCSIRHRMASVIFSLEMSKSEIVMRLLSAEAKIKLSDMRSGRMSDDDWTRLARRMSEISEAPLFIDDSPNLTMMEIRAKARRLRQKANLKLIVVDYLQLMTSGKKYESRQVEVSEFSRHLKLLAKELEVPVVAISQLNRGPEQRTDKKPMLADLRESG
Assay: DnaB intein splicing inhibitors, dose response, biochemical, cell-free fluorescence (AID 449749)
Assay type: functional
Calls of active or inactive are those of the source.

Example entries and their recorded answers appear below.
# Molecule, Measurement Type, Reported Value
measured = [
    ("CC1Nc2ncnc(N3CCc4ccccc4C3)c2N(Cc2ccc(Cl)cc2)C1=O (stereo not given)", "AC50", "> 380 µM (inactive)"),
    ("CS(=O)(=O)c1ccc(C(=O)OCc2nnc(-c3ccccc3)o2)cc1[N+](=O)[O-]", "AC50", "7.57 µM (active)"),
    ("O=C(Nc1ccc(F)cc1)c1nn(-c2ccccc2)c(=O)cc1Cl", "AC50", "11.9 µM (active)"),
]

Problem: Find the measured AC50 of `COc1cccc(-c2cc(O)[nH]n2)c1` and report it.
Solution: 2.51 µM (active)

Problem: Find the measured AC50 of `CC1=C(CC(=O)c2ccc(Cl)cc2)C(=O)c2ccccc2C1=O` and report it.
Solution: 7.84 µM (active)

Problem: Find the measured AC50 of `c1ccc(-c2nnc(-c3ccccn3)nc2NC2CCCCC2)cc1` and report it.
Solution: 9.45 µM (active)

###

Listing of recorded EC50 by entry.
Target: Corticotropin-releasing factor receptor 2/Corticotropin-releasing factor-binding protein (Homo sapiens, UniProt P24387+Q13324)
Sequence (Q13324 whole entry): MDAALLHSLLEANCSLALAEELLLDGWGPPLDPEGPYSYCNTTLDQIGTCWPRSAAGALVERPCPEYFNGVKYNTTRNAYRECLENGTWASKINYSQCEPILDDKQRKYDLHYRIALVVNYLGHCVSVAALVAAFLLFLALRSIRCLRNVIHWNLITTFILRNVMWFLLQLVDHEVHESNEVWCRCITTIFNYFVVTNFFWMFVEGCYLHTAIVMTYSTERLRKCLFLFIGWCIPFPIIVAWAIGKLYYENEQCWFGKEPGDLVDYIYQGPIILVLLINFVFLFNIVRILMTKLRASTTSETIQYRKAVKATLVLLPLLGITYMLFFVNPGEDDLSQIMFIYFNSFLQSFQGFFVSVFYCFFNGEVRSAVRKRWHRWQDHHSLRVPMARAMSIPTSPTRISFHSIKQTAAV
Sequence (P24387 whole entry): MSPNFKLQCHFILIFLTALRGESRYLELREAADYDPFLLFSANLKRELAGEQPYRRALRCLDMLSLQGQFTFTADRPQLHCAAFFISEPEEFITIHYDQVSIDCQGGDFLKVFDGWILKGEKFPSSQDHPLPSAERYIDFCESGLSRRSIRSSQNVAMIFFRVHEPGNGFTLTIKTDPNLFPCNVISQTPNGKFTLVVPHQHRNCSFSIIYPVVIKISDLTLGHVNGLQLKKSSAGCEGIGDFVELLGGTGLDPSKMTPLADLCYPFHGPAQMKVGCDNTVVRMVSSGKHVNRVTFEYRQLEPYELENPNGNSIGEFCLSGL
Experiment: activators of CRF receptor 2 with binding protein – uHTS hits, confirmation (AID 602473)
Format: functional
Details: read-out: EC50_Mean
Calls of active or inactive are those of the source.

# Compound, Reported Value
rows = [
    ("S=C(NCCc1ccccc1)N1CCC2CC1c1c(Cl)cccc12 (stereo not drawn)", "> 53 µM (inactive)"),
    ("COC(=O)C1=C(C)N(Cc2ccccc2)C(=S)N[C@H]1c1cccc(F)c1", "> 53 µM (inactive)"),
]

Please examine the following record next.
Problem: Find the measured EC50 of `Cc1ccc(C)c(NC(S)=NCCCN2CCOCC2)c1` and report it.
Solution: > 53 µM (inactive)

###

Target: FAD-linked sulfhydryl oxidase ALR (Homo sapiens, UniProt P55789)
Sequence (P55789 whole entry): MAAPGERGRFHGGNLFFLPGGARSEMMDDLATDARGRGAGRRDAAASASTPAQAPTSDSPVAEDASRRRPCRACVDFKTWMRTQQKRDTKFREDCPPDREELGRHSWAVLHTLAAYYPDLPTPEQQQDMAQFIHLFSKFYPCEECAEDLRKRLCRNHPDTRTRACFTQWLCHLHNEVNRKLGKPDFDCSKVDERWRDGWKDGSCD
Assay: inhibitors of human ALR sulfhydryl oxidase, dose response, biochemical, H2O2 detection, luminescence, cherry-pick (AID 493248)
The source made the active and inactive calls.
Measurement Type: AC50

Example entries and their recorded answers appear below.
# Molecule, Measurement Type, Reported Value
rows = [
    ("CCCC(=O)N1CCc2cc(-c3nc(N)sc3C)ccc21", "AC50", "149 nM (active)"),
    ("CCSc1nnc(NC(=O)c2cccc(S(=O)(=O)N(C)c3ccc(C)cc3)c2)s1", "AC50", "1120 nM (active)"),
    ("CC(=O)N1CCN(S(=O)(=O)c2cccc(C(=O)Nc3ccccc3N3CCCC3)c2)CC1", "AC50", "3270 nM (active)"),
]

Problem: Find the measured AC50 of `Cc1[nH]c2ccc(-c3nnc(S)n3C)cc2c1C` and report it.
Solution: 664 nM (active)

Origin of values: ChEMBL document CHEMBL1201862
